- Assayed target: SPT-ORMDL3 complex (Homo sapiens, UniProt O15269+O15270+Q8N138)
- Construct: full-length subunits (ORMDL3-FL) co-expressed in HEK293F; N-terminal Flag tag on a subunit; purified in GDN; dimer of heterotetrameric protomers; with Serine palmitoyltransferase small subunit A
- Sequence (Q8N138 whole entry): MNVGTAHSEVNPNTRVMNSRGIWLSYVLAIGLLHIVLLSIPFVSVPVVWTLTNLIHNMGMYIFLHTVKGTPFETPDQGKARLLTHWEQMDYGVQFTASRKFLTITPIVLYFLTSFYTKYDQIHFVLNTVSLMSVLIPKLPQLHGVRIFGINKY
- Sequence (O15270 whole entry): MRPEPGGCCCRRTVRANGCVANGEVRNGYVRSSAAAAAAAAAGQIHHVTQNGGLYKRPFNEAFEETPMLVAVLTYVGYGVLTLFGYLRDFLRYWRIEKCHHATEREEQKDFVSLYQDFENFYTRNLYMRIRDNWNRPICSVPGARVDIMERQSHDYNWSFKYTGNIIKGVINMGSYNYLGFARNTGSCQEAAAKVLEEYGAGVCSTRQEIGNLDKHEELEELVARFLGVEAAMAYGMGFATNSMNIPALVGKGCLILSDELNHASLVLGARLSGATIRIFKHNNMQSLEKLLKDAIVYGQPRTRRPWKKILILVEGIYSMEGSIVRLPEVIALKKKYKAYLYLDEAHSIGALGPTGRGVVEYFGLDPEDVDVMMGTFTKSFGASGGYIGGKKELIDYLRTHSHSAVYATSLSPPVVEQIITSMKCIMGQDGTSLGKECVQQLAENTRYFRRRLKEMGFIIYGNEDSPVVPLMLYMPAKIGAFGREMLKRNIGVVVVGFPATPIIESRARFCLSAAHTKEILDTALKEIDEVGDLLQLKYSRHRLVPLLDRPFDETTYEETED
- Sequence (O15269 whole entry): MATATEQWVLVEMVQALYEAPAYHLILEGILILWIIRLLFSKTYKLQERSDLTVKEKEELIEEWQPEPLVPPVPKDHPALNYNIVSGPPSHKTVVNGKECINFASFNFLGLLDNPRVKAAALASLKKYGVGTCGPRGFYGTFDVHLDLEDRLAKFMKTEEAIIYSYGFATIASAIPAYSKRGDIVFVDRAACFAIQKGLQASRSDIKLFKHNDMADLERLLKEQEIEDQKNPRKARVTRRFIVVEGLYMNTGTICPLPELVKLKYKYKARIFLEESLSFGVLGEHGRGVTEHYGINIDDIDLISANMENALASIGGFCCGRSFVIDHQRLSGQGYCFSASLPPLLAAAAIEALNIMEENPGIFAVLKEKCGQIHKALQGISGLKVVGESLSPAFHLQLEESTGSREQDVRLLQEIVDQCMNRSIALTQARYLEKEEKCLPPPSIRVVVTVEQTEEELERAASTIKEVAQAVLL
- Sequence (Q969W0 whole entry partner): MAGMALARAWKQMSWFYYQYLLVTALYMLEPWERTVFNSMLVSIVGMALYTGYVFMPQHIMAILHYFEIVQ
- Protocol description: DTNB CoA-release assay; cryo-EM structure
Measured endpoint: IC50 (µM)
Field format: number, assumed µM, no unit text.

stdin: Output reported IC50 of the molecule CCCCCCCCCCCCC/C=C/[C@@H](O)[C@H](CO)NC(=O)CCCCC [C6-ceramide] on SPT-ORMDL3 complex (Homo sapiens, UniProt O15269+O15270+Q8N138).
stdout: 2.2

----------
- Assayed target: SPT-ORMDL1 complex (Homo sapiens, UniProt O15269+O15270+Q9P0S3)
- Construct: full-length subunits co-expressed in HEK293F; N-terminal Flag tag on a subunit; purified in GDN; with Serine palmitoyltransferase small subunit A
- Sequence (Q9P0S3 whole entry): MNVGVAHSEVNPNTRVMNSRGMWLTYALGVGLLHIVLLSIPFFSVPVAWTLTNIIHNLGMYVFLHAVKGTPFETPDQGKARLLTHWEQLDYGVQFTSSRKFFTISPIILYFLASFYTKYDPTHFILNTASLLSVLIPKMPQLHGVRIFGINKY
- Sequence (O15270 whole entry): as the sequence (O15270 whole entry) above
- Sequence (O15269 whole entry): as the sequence (O15269 whole entry) above
- Sequence (Q969W0 whole entry partner): as the sequence (Q969W0 whole entry partner) above
- Protocol description: DTNB CoA-release assay
Measured endpoint: IC50

stdin: Supply measured IC50 of CCCCCCCCCCCCC/C=C/[C@@H](O)[C@H](CO)NC(=O)CCCCC [C6-ceramide] in your reply.
stdout: 4.07 µM

----------
- Assayed target: SPT-ORMDL2 complex (Homo sapiens, UniProt O15269+O15270+Q53FV1)
- Construct: full-length subunits co-expressed in HEK293F; N-terminal Flag tag on a subunit; purified in GDN; with Serine palmitoyltransferase small subunit A
- Sequence (Q53FV1 whole entry): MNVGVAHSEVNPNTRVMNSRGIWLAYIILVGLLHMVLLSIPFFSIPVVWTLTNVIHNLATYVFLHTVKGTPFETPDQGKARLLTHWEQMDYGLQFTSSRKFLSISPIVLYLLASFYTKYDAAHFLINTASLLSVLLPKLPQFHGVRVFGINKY
- Sequence (O15270 whole entry): as the sequence (O15270 whole entry) above
- Sequence (O15269 whole entry): as the sequence (O15269 whole entry) above
- Sequence (Q969W0 whole entry partner): as the sequence (Q969W0 whole entry partner) above
- Protocol description: DTNB CoA-release assay
Measured endpoint: pIC50
For clarity, pIC50 is expressed as the negative log10 of concentration in mol/L.

stdin: Supply measured pIC50 of CCCCCCCCCCCCC/C=C/[C@@H](O)[C@H](CO)NC(=O)CCCCC [C6-ceramide] in your reply.
stdout: 6.01
